- measurement.target: Estrogen receptor (Homo sapiens)
- protocol.text: qHTS assay to identify small molecule agonists of the estrogen receptor alpha (ER-alpha) signaling pathway (AID 743075);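 note: HEK293 GripTite cells with ER-alpha and UAS-driven beta-lactamase reporter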
- experimental.parameters: HEK293 ER-alpha-UAS-bla, beta-lactamase FRET ratio, 18 h; series mostly up to 70.1 µM
Records with an inconclusive call do not appear. Calls of active or inactive are those of the source. Calls come from the whole dose curve.
experimental.endpoint: outcome

substance.smiles | reported.result
O=C(O)C1(C(=O)Nc2ccc(Cl)cc2Cl)CC1 | inactive
CCCCC(=O)OCC(=O)[C@H]1[C@H](C)C[C@H]2[C@@H]3C[C@H](F)C4=CC(=O)C=C[C@]4(C)[C@@]3(F)[C@@H](O)C[C@@]21C | inactive
NCC(=O)CCC(=O)O | inactive
Cc1oc2c(NC(=O)c3c(Cl)cccc3Cl)cccc2c1C(C)(C)O | inactive
CCC(=O)O[C@]1(C(=O)CCl)[C@@H](C)C[C@H]2[C@@H]3CCC4=CC(=O)C=C[C@]4(C)[C@@]3(F)[C@@H](O)C[C@@]21C | inactive

// input: 7 compounds below; output: outcome for each
1. O=C(O)c1ccc(-n2nc(-c3ccccc3O)nc2-c2ccccc2O)cc1
2. Cc1[nH]c(C)c(Cl)c(=O)c1Cl
3. CC(=O)c1cccc([N+](=O)[O-])c1
4. O=S(c1cc(Cl)cc(Cl)c1O)c1cc(Cl)cc(Cl)c1O
5. CCNc1cc(O)ccc1C
6. COc1ccc(S(=O)(=O)N2C(=O)[C@@](c3ccccc3OC)(N3C[C@H](O)C[C@H]3C(=O)N(C)C)c3cc(Cl)ccc32)c(OC)c1
7. C#CCN(C)CCCOc1ccc(Cl)cc1Cl

Output:
inactive
inactive
inactive
inactive
inactive
inactive
inactive

// input: 2 compounds below; output: outcome for each
1. OC[C@H]1O[C@@H](OCCc2ccc(O)cc2)[C@H](O)[C@@H](O)[C@@H]1O
2. Cc1oc(-c2ccccc2)nc1CCOc1cccc2c1ccn2CCC(=O)O

Output:
1. inactive
2. inactive

// input: 7 compounds below; output: outcome for each
1. O=C(CS)Nc1ccccc1
2. C=CC(=O)OCCOCCOCCOCCOC(=O)C=C
3. CC(C)Nc1ccc(NC(C)C)c2c1C(=O)c1ccccc1C2=O
4. CCCCCCCCCCCc1ccccc1
5. C[C@@H]1C[C@H]2O[C@@]3(O[C@@H]2C(C)(C)O)[C@H](O)[C@@]2(C)[C@@H]4CC[C@H]5C(C)(C)[C@@H](O[C@@H]6OC[C@@H](O)[C@H](O)[C@H]6O)CC[C@@]56C[C@@]46CC[C@]2(C)[C@@H]13
6. O=[N+]([O-])c1ccc2[nH]ncc2c1
7. CN1CCN(C(c2ccccc2)c2ccccc2)CC1

Output:
inactive
inactive
inactive
inactive
inactive
inactive
inactive
